tested on: HOP-62 NSCLC; assay: NCI-60 one-dose screen, 48 h; conditions: 10 µM unless noted
The panel holds about 83,000 compounds, 20% with a hit somewhere; the sample as a whole holds those more often. Calls of active or inactive are those of the source. How the source made its calls: active means growth percent below 10; inactive means the rest.
Outcomes: True (active), False (inactive)

1) CCC(=O)Oc1ccc(/C(=C(\C)c2ccccc2)c2ccc(OCCN(CC)CC)cc2)cc1 False
2) COc1ccc(C/C(C)=C(\c2ccc(Cl)cc2)c2ccc(OCCN3CCCCCC3)cc2)cc1 False
3) CC[C@H](Nc1ncnc(N)c1C(N)=O)c1nc2cccc(NCc3ccc(C(=O)NO)cc3)c2c(=O)n1-c1ccccc1 False
4) Nc1ccc2c(c1)C(=O)NC2=O False
5) COc1ccc(CCN2CC=Cn3c2nc2ccccc2c3=O)cc1 False
6) CCn1cc2c(cc1=O)-c1nc3ccccc3c3ccnc(c13)C2=O False
7) CCCCOc1ccc(NC(=O)n2nc(NC(C)=O)c3cc(NC(C)=O)ccc32)cc1 False
8) COc1ccc2nc3cc(Cl)ccc3c(N3CCN(c4nccc(NCc5ccccc5)n4)CC3)c2c1 False
9) Cn1cc(-c2ccc(-c3cn(C)c4ncccc34)[nH]2)c2cccnc21 False
10) O=C(CN1CCN(c2cc3c(cc2F)c(=O)c(C(=O)O)cn3C2CC2)CC1)Nc1cc(=O)[nH]c(=O)[nH]1 False
11) CCN(CC)CCCNc1cc(OC)cc2nc3cc(Cl)ccc3nc12 True
12) O=C(O)c1cn(C2CC2)c2cc(N3CCN(Cc4nc5c(cnn5-c5ccc([N+](=O)[O-])cc5)c(=O)[nH]4)CC3)c(F)cc2c1=O False

---

tested on: NCI-H23 lung; test: NCI-60 one-dose screen, 48 h; details: 10 µM unless noted
About 83,000 compounds went through this panel and 20% of them were active in at least one assay; those are over-represented in the sample as a whole. The source made the active and inactive calls. How the source made its calls: active means growth percent below 10; inactive means the rest.
Classes used: active, inactive

1) O=C1NC(=O)C(CC(=O)n2c(-c3ccccc3)nc3ccccc32)C(=O)N1 inactive
2) COc1ccc(-c2cc(-c3ccc(N(C)C)cc3)nc(NC(=O)c3ccncc3)n2)cc1 inactive
3) O=C1/C(=C\c2cn(C(=O)c3ccc(Cl)cc3)c3ccccc23)c2ccccc2N1c1c(Cl)cccc1Cl inactive
4) CCN1CCN(Cc2ccc(NC(=O)Nc3nc4ccc(Oc5ccnc(C(=O)NC)c5)cc4s3)cc2C(F)(F)F)CC1 active
5) O=C(CO[N+](=O)[O-])Nc1ccc(C(=O)/C=C/c2ccc(Cl)cc2)cc1 active
6) COc1cc(C(=O)/C=C/c2c(C)n([O-])c3ccc(C)cc3[n+]2=O)cc(OC)c1OC inactive
7) COc1ccc(/C=C/C(=O)c2c(O)c(C)c(O)c3c2OC2=CC(O)=C(C(C)=O)C(=O)[C@]23C)cc1 active
8) O=C(COc1cccc(/C=C2/Oc3ccccc3C2=O)c1)Nc1nccs1 inactive
9) Cc1cc2cc3cc(C)c(N(C)C)cc3[n+](C)c2cc1N(C)C inactive
10) CC(=O)C1=C(O)C=C2Oc3c(C(=O)/C=C/c4cc(C(F)(F)F)cc(C(F)(F)F)c4)c(O)c(C)c(O)c3[C@]2(C)C1=O active
11) CC(C)[C@@H]1CC[C@]2(C(=O)NCCCCN=C(N)N)CC[C@]3(C)[C@H](CC[C@@H]4[C@@]5(C)CCC(=O)C(C)(C)[C@@H]5CC[C@]43C)[C@@H]12 inactive

---

system: A498 renal; test: NCI-60 one-dose screen, 48 h; conditions: 10 µM unless noted
Compounds without any hit were thinned out: in the full panel of roughly 83,000, 20% have a hit. Activity calls are given as the source filed them. Rule for the calls: active = growth percent below 10; inactive = the rest.
Possible outcomes: active, inactive

compound	target-system	group-label
N#Cc1ccc(NC(=O)Nc2ccc(Cc3ccc(NC(=O)Nc4ccc(C#N)cc4)cc3)cc2)cc1	A498 renal	inactive
CN(C)c1ccc(C2Nc3ccccc3-n3cccc32)cc1 (centres undefined)	A498 renal	inactive
COC(/C=C/c1ccc([N+](=O)[O-])cc1)OC	A498 renal	inactive
O=C(NCc1cccc(C(F)(F)F)c1)[C@H](CCC(=O)N1CCN(C2CCCCC2)CC1)N1C(=O)[C@@H](N2C(=O)OC[C@@H]2c2ccccc2)[C@H]1/C(Cl)=C/c1ccccc1	A498 renal	inactive
COc1ccc2nc(NC(=O)c3cccnc3Nc3cc(OC)c(OC)c(OC)c3)sc2c1	A498 renal	active
OC(c1cc(-c2ccccc2)nc2ccc(Cl)cc12)C1CCCCN1 (centres undefined)	A498 renal	inactive
Nc1c(C(=O)Nc2ccccc2)sc2nc3c(cc12)CN(CCc1ccccc1)CC3	A498 renal	inactive
Cc1cc(Nc2nc(N3CCN(C)CC3)nc3ccccc23)n[nH]1	A498 renal	inactive
Clc1cccc(Nc2nc(Nc3cnc4ccccc4c3)c3[nH]cnc3n2)c1	A498 renal	inactive
CCCCCCCCCC(=O)Oc1ccc(/C(=C(/C)c2ccccc2)c2ccc(OCCN3CCCC3)cc2)cc1	A498 renal	active
COc1cccc(-n2cc(-c3nc(Nc4cc(C)[nH]n4)c4ccccc4n3)nn2)c1	A498 renal	inactive
COc1cc(C2C(C(=O)c3cccs3)=C(O)C(=O)N2CCN2CCOCC2)cc(OC)c1OC (centres undefined)	A498 renal	inactive
CC/C=C\C[C@H](O)C/C=C1/C(=O)C=C[C@@H]1C/C=C\CCCC(=O)OC(C)C	A498 renal	inactive
C=C1C(=O)O[C@H]2[C@H]1CC/C(Cn1cc(Cn3ccc4ccccc43)nn1)=C\CC[C@@]1(C)O[C@@H]21	A498 renal	inactive
CCCCNc1ccc2c3c1cccc3c(=O)n1c3ccccc3nc21	A498 renal	inactive
CCN(C(=O)CN1CCN(c2cc3c(cc2F)c(=O)c(C(=O)O)cn3C2CC2)CC1)c1nc(-c2ccc(OC)cc2)cs1	A498 renal	inactive
C=C1CCC2C3(C)COC(c4ccc(OC)cc4Br)OC3CCC2(C)C1/C=C/C1=CCOC1=O (centres undefined)	A498 renal	inactive
O=C(/C=C\c1ccc2ccccc2n1)c1cc(Cl)ccc1O	A498 renal	inactive
O=C(O)c1ccc2c(c1Sc1ccccc1)C(=O)c1ccccc1C2=O	A498 renal	inactive
Clc1ccc(-c2nnc(COc3ccccc3Cl)o2)cc1	A498 renal	inactive
O=C1Nc2c(ccc(Cl)c2Cl)/C1=C/c1cc(Br)c(O)c(Br)c1	A498 renal	inactive
CCCCCC(=O)Oc1ccc(/C(=C(\C)c2ccccc2)c2ccc(OCCN(CC)CC)cc2)cc1	A498 renal	inactive
C=C1CC[C@@H]2[C@](C)(COC(C)=O)[C@H](OC(C)=O)CC[C@@]2(C)[C@@H]1CC(Nc1ccc(S(=O)(=O)Nc2nc(C)cc(C)n2)cc1)C1=CCOC1=O (some centres undefined)	A498 renal	inactive
CN1CCOCCOCCOc2ccccc2NC(=O)c2nc(cnc2N)-c2ccc(cc2)S1(=O)=O	A498 renal	inactive
CCCCN(CC)CCCCCCCCCCN1CCCc2cc(OC)ccc21	A498 renal	inactive
Cc1ccc(Nc2nc(N)nc(Nc3ccc4ccccc4c3)n2)cc1	A498 renal	inactive
Cc1ccn2c(-c3csc(Nc4cccc(O)c4)n3)c(C)nc2c1	A498 renal	inactive
Cc1ccc(-c2nc(/C=N/Nc3cc(C)nc4ccc(Cl)cc34)c(C)o2)cc1	A498 renal	inactive
COc1cc(OC)c(/C=C/S(=O)(=O)Cc2ccc(OC)c(N)n2)c(OC)c1	A498 renal	active
O=C(/C=C/c1ccc(Cl)cc1)/C=C/c1cc2ccccc2[nH]c1=O	A498 renal	inactive
COc1cc(NCCCCN=C(N)N)c2ncccc2c1	A498 renal	inactive
Cc1nn(-c2ccccc2)c2nc(C)n(-c3ccc(Br)cc3)c(=O)c12	A498 renal	active
OCCNCCNc1c2ccccc2nc2ccccc12	A498 renal	inactive
Nc1cc(O)cc2cccnc12	A498 renal	inactive

---

Measured growth values are reported for all entries that follow.
test system: PC-3 prostate; experiment: NCI-60 one-dose screen, 48 h (100 = growth as untreated, 0 = no growth, -100 = all killed); settings: 10 µM unless noted
The panel holds about 83,000 compounds, 20% with a hit somewhere; the sample as a whole holds those more often.

compound	target-system	growth, %
COc1ccc(C2c3ccc4ccccc4c3Oc3ncnc(N)c32)cc1 (stereo not drawn)	PC-3 prostate	71.9
COc1ccc(Cl)cc1Nc1nc(C(F)(F)F)ccc1C(=O)N/N=C/c1cccnc1	PC-3 prostate	43.7
Cc1ccc2c(c1)C(=O)c1c-2c(OCCCN(C)C)nc2ccccc12	PC-3 prostate	18.6

---

Below, each entry is listed with its recorded growth.
tested on: SK-MEL-2 melanoma; assay: NCI-60 one-dose screen, 48 h (100 = growth as untreated, 0 = no growth, -100 = all killed); details: 10 µM unless noted
The panel holds about 83,000 compounds, 20% with a hit somewhere; the sample as a whole holds those more often.
test-readout: growth (%)

compound	test-readout	recorded-result
O=C(Nc1ccc(Oc2ccc(F)cc2)c(Cl)c1)c1cccnc1	growth	91.3
CCN(CC)CCCCNc1ccc(NCCCCN(CC)CC)c2c1C(=O)c1ccccc1C2=O	growth	105
COc1ccc(-c2cc(=O)[nH]c3c(OC)c4ccccc4c(OC)c23)cc1	growth	27.6
COCCOc1ccc(-c2nc3ccc(-c4nc5ccc(N6CCN(C)CC6)cc5[nH]4)cc3[nH]2)cc1	growth	-76.2
Nc1ccc2c(c1)C(=O)NC2=O	growth	117
CCOC(=O)/C=C/C(=O)[C@H](CC(C)C)NC(=O)[C@H](Cc1ccccc1)NC(=O)OCc1ccccc1	growth	99.8
COc1ccc(S(=O)(=O)NCCNc2nccc(-c3c(-c4cccc(N)c4)nc4sccn34)n2)cc1	growth	108
CCOC(=O)C(=Cc1ccccc1F)C(=O)OCC	growth	98.4
Cc1ccc(-c2nc(/C=N/Nc3cc(C)nc4ccc(Cl)cc34)c(C)o2)cc1	growth	95.1
O=C(O)c1cccc2c1-c1ccccc1C2=O	growth	98.4
CC1CN(Cc2ccco2)C(=S)N(c2ccccc2)C1=O (stereo unspecified)	growth	108
CC/C(Cc1ccccc1)=C(/c1ccc(O)cc1)c1ccc(OCCN2CCCC2)cc1	growth	-52.3
CC(=O)OC1Oc2cc(C)c(C)cc2-c2oc(=O)c(-c3cc4ccc(N(C)C)cc4oc3=O)cc21 (stereo unspecified)	growth	92.4
O=C1C(=O)N(CCCCn2cc(CO)nn2)c2ccccc21	growth	98.8
Cc1ccccc1CCO	growth	86.3
COc1cnc2c(c1)C(=O)c1c-2n(CCCBr)c(=O)c2cc([N+](=O)[O-])ccc12	growth	6.39
N#CC1=C(N)Oc2c(ccc3ccccc23)C1c1cccs1 (stereo unspecified)	growth	52.5
Cc1ccc2cnc(N)c(C#Cc3cncc(C(=O)Nc4ccc(CN5CCN(C)CC5)c(C(F)(F)F)c4)c3)c2c1	growth	-62.1
O=C1c2cc3c(cc2-c2c1c1cc(F)c(F)cc1c(=O)n2C[C@H](O)CO)OCO3	growth	-26
CC(C)Oc1nc2c(c(=O)n(C)c(=O)n2C)n1C	growth	107
COc1cccc(/C=C2/C(=O)N(Cc3ccco3)SC2=S)c1OC	growth	93.1
Cc1cc(N/N=C/c2nc(-c3ccc(Cl)cc3)oc2C)c2cc(Cl)ccc2n1	growth	104
CCCCCCCCCC(=O)Oc1ccc(/C(=C(/C)Cc2cccc(OC)c2)c2ccc(OCCN(C)C)cc2)cc1	growth	107
CS(=O)(=O)c1c(Nc2ccccc2)n[nH]c1N	growth	113
CC(=O)C1=C(O)C=C2Oc3c(C(=O)/C=C/c4cc(Cl)cc(Cl)c4)c(O)c(C)c(O)c3[C@]2(C)C1=O	growth	-62.8
Fc1ccc(Cc2ccc(F)cc2)cc1	growth	111
NC(=S)N/N=C/c1cc(-c2cccc(N)c2)ccn1	growth	45.5
COc1ccc(-c2cc(-c3cccnc3)nc3sc4c(=O)n(-c5ccc(C)cc5)cnc4c23)cc1OC	growth	108
CC/C=C\C[C@H](O)C/C=C1/C(=O)C=C[C@@H]1C/C=C\CCCC(N)=O	growth	13.9
CCN(CC)CCCC(C)Nc1ccnc2c(OC)cccc12 (stereo unspecified)	growth	127
Nc1c(C(=O)Nc2cccc3c2OCCO3)sc2nc3c(cc12)C(=O)CCC3	growth	64.9

src = PubChem BioAssay (NCI)
